System: OVCAR-5 ovarian
Test: NCI-60 one-dose screen, 48 h (100 = growth as untreated, 0 = no growth, -100 = all killed)
Conditions: 10 µM
About 83,000 compounds went through this panel and 20% of them were active in at least one assay; those are over-represented in the sample as a whole.
Assign Y whenever growth does not fall below 30%; assign N whenever it does.

COMPOUND: C=C(C)[C@@H]1CC[C@]2(C(=O)OC)CC[C@]3(C)[C@H](CC[C@@H]4[C@@]5(C)CC[C@H](N)C(C)(C)[C@@H]5CC[C@]43C)[C@@H]12
CAT: N

COMPOUND: Cc1ccc(S(=O)(=O)c2nc(-c3ccccc3)oc2S(=O)(=O)CC(=O)N2CCCC2)cc1
CAT: N

COMPOUND: CC1=N/C(=C\c2ccc(N(C)C)cc2)C(=O)N1CCc1ccc(S(N)(=O)=O)cc1
CAT: Y

COMPOUND: C/C(=N\N=C\c1ccc(N(C)C)cc1)c1ccc2c(c1)Nc1ccccc1S2
CAT: Y

COMPOUND: C=C1CCC2C3(C)COC(c4cc(F)cc(F)c4)OC3CCC2(C)C1C/C=C1/C(=O)OCC1O (stereo unspecified)
CAT: N

COMPOUND: CC(=O)Nc1nc(-c2ccc(N3CCN(C)CC3)c(NS(=O)(=O)c3cccc4c(N(C)C)cccc34)c2)cs1
CAT: Y

Req: Quick check: does CCNCCCn1c2c(c3cc(OC)c(OC)cc3c1=O)C(=O)c1cc3c(nc1-2)OCO3 have growth greater than or equal to 30%?
Resp: N

Req: growth >= 30% for Cc1ccc(-c2cc(C(=O)N=Nc3c(O)[nH]c4ccc(Br)cc34)c3ccccc3n2)cc1 ?
Resp: Y

###

Test system: A498 renal
Assay: NCI-60 one-dose screen, 48 h (100 = growth as untreated, 0 = no growth, -100 = all killed)
Details: 10 µM
Compounds without any hit were thinned out: in the full panel of roughly 83,000, 20% have a hit.
Listed below: growth values for each entry.
Numbers only; they are read as %.

Req: Look up growth of O=C(c1ccc(-n2c(=O)[nH]c3ccccc3c2=O)cc1)N1CCOCC1 and report it.
Resp: 116

###

System: PC-3 prostate
Assay: NCI-60 one-dose screen, 48 h (100 = growth as untreated, 0 = no growth, -100 = all killed)
Conditions: 10 µM
Compounds without any hit were thinned out: in the full panel of roughly 83,000, 20% have a hit.
Below is a list of entries, each paired with its recorded growth value.
Kindly provide the numeric value in % only, without the unit symbol.

MOLECULE: O=C1CCC(N2Cc3cc(NC(=O)COc4ccccc4)ccc3C2=O)C(=O)N1 (centres undefined)
METRIC NAME: growth
NUMERIC VALUE: 37.7
//
MOLECULE: CNCc1cccc2c1OCCCCCC[C@@](C)(O)CC1(CC1)S(=O)(=O)c1ccc(cc1)-c1cnc(N)c(n1)C(=O)N2
METRIC NAME: growth
NUMERIC VALUE: -59
//
MOLECULE: O=c1cc(-c2ccccc2)oc2cc(OCCCNCc3ccccc3)cc(O)c12
METRIC NAME: growth
NUMERIC VALUE: -0.767
//
MOLECULE: O=C(O)CCCCCCCCCCN1C(=O)/C(=C/c2cnc(-c3ccccc3)s2)SC1=S
METRIC NAME: growth
NUMERIC VALUE: 95
//
MOLECULE: Clc1ccc(/C=N/Nc2ncnc3sc4c(c23)CCN(Cc2ccccc2)C4)cc1
METRIC NAME: growth
NUMERIC VALUE: -59.7

Req: Note down growth recorded for COc1ccc(-c2ccc(/C=N/NC(=O)c3[nH]c4ccc(Br)cc4c3-c3ccccc3)s2)cc1
Resp: 91.7

Req: Supply growth value. Item: CC1(c2ccccc2)NC(=O)N(CC(=O)Nc2ccc(C(=O)/C=C/C=C/c3ccccc3)cc2)C1=O (centres undefined)
Resp: 36.4

Req: Give a short answer stating reported growth for COc1ccc(-c2cc(C(=O)N=Nc3c(O)[nH]c4ccccc34)c3ccccc3n2)cc1 .
Resp: 2.92

Req: Indicate its recorded growth; the molecule in question is CC(=O)c1cc(C(=O)N2c3ccccc3Sc3ccccc32)n2ccc(C)cc12
Resp: 28.3

###

Test system: M14 melanoma
Experiment: NCI-60 one-dose screen, 48 h (100 = growth as untreated, 0 = no growth, -100 = all killed)
Details: 10 µM
The panel holds about 83,000 compounds, 20% with a hit somewhere; the sample as a whole holds those more often.
Below, each entry is listed with its recorded growth.
Report the value in % with no unit label.

Here's what some known entries look like.
COMPOUND: CC(C)c1ccc(C(=O)Nc2sc3c(c2C(N)=O)CCC(=O)C3=O)cc1
growth (%): 96.3
//
COMPOUND: Cc1ccc(NCC(=O)Nn2c(COc3ccccc3)nc3ccccc3c2=O)cc1
growth (%): 93.3
//
COMPOUND: CC(=O)OC[C@@]1(C)C2CC[C@]3(C)C(CC=C4C5CC(C)(C)CC[C@]5(C(=O)Nc5ccccc5)CC[C@]43C)[C@@]2(C)C[C@@H](OC(C)=O)[C@@H]1OC(C)=O (stereo partly drawn)
growth (%): 50.9
//
COMPOUND: O=C(N/N=C/c1ccc(B(O)O)o1)c1[nH]c2ccc(Br)cc2c1-c1ccccc1
growth (%): 20.1
//
COMPOUND: O=C1c2ccccc2C(=O)c2c1c(C(=O)c1ccc(Cl)cc1)n1c2ccc2c3ccccc3ccc21
growth (%): 107
//
COMPOUND: CCCCCCCCCCCCCCCCCCCC(=O)NCCc1c[nH]c2ccc(OC(=O)NOCCOCCOCCOCCOCCOCCOCCOCCOCCOCCOCCOCCOCCOCCOCCOCCOCCOCCOCCOCCOCCOCCOC)cc12
growth (%): -18.8

Req: Recall and state the measured growth for N#Cc1ccc(-c2nn(-c3ccc(C(=O)O)cc3)cc2CNc2cc(Cl)cc(C(F)(F)F)c2)cc1 .
Resp: 11.3

Req: Give the value of growth reported for the following: CCCn1c(=O)c2[nH]c(-c3ccc(OCc4nc5ccccc5[nH]4)cc3)nc2n(CCC)c1=O
Resp: 73.7

###

Tested on: OVCAR-5 ovarian
Assay: NCI-60 one-dose screen, 48 h (100 = growth as untreated, 0 = no growth, -100 = all killed)
Conditions: 10 µM
About 83,000 compounds went through this panel and 20% of them were active in at least one assay; those are over-represented in the sample as a whole.
METRIC NAME: growth (%)
Could you give me the number in %? Just the number is fine.

Here is how some compounds turned out for growth.
COMPOUND: COc1ccc(NC(=O)Nc2ccc(OCC(=O)N=Nc3c(O)[nH]c4ccc([N+](=O)[O-])cc34)cc2)cc1
READOUT UNIT: %
growth: 124
--
COMPOUND: O=C(CSc1nnc(-c2ccc3nc(-c4ccccc4)[nH]c3c2)o1)Nc1ccc(Br)cc1
READOUT UNIT: %
growth: 86.1
--
COMPOUND: CC(=O)OC[C@@]1(C)C2CC[C@]3(C)C(CC=C4C5CC(C)(C)CC[C@]5(C(=O)Nc5ccccc5)CC[C@]43C)[C@@]2(C)C[C@@H](OC(C)=O)[C@@H]1OC(C)=O (stereo partly drawn)
READOUT UNIT: %
growth: 81.4
--
COMPOUND: COc1cc(/C=C/C(=O)c2cc(OC)c(OC)c(OC)c2)ccc1Oc1nc(Nc2ccc(F)cc2)nc(N(C)C)n1
READOUT UNIT: %
growth: -44.7
--
COMPOUND: O=C(CS(=O)(=O)c1oc(-c2ccc(Cl)cc2)nc1S(=O)(=O)c1ccc(Cl)cc1)N1CCOCC1
READOUT UNIT: %
growth: 38.3
--
COMPOUND: Cc1ccc(-c2nc(Nc3ccc(S(N)(=O)=O)cc3)c3ccccc3n2)cc1
READOUT UNIT: %
growth: 68.9
--
COMPOUND: CC(=O)Nc1ccc(-c2cn(-c3cccc(C(=O)Nc4cc(CN5CCOCC5)cc(C(F)(F)F)c4)c3)nn2)cn1
READOUT UNIT: %
growth: -95

Now for another entry.
Req: Provide one value: measured growth of COc1ccc2[nH]c(O)c(N=NC(=O)c3cc(-c4ccc(C)cc4)nc4ccccc34)c2c1
Resp: 119

###

Tested on: RXF 393 renal
Assay: NCI-60 one-dose screen, 48 h
Details: 10 µM
About 83,000 compounds went through this panel and 20% of them were active in at least one assay; those are over-represented in the sample as a whole. Activity calls are given as the source filed them. How the source made its calls: active means growth percent below 10; inactive means the rest.
The reply should name one outcome from active, inactive

Please review the entries below; each comes with its answer.
SMILES DATA: Cc1ccc(-c2cc(-c3cc4ccccc4nc3Cl)[nH]c(=O)n2)cc1
CAT: active
//
SMILES DATA: CC1(C)CC[C@]23CC[C@]4(C)[C@H](CC[C@@H]5[C@@]6(C)CC[C@H](N)C(C)(C)[C@@H]6CC[C@]54C)[C@H]2[C@H]1OC3=O
CAT: active
//
SMILES DATA: Cc1cc(C)cc(Oc2cccc(-c3c(C)nnn3C3CCN(CCN(C)C)CC3)n2)c1
CAT: active

Attention now turns to another entry.
Req: Recorded test outcome, item Cc1nc2c(cnn2-c2ccccc2)c(=O)n1-c1ccc(NC(=O)c2ccc(F)cc2)cc1
Resp: inactive
